The origin of these recorded values is patent US20150329642A1.

# tgt: T1, cMetECDHis (human, UniProt P08581 25-932, limits assumed, biotinylated in the cross-block ELISA of Example 17)
# T1 construct: Expressed in HEK-293F cells; also called soluble cMetECDHis; biotinylated cMetECDHis
# test: BLI (Octet); antibody captured, cMetECDHis in solution
Lab note: anything with koff below 0.002 s⁻¹ is marked yes; values at 0.002 s⁻¹ or higher are marked no.

Please review the entries below; each comes with its answer.
binder	label.value
anti-c-Met HuMab 008 (IgG1) (antibody, V domains shown, also called TH1016-008; PC1016-008) VH: EVQLVQSGAEVKKPGESLKISCKGSGYSFTSYWIGWVRQMPGKGLEWMGIIYPGDSETRYSPSFQGQVTISADKSISTAYLQWSSLKASDTAMYYCARQEITGEFDYWGQGTLVTVSS VL: AIQLTQSPSSLSASVGDRVTITCRASQGISSALAWYQQKPGKAPKLLIYDASSLESGVPSRFSGSGSGTDFTLTISSLQPEDFATYYCQQFNSYPRTFGQGTKVEIK	yes
anti-c-Met HuMab 005 (IgG1) (antibody, V domains shown, also called TH1016-005; PC1016-005) VH: QVQLVQSGAEVKKPGSSVKVSCKASGGTFSSYGFGWVRQAPGQGLEWMGRISPILGIANYAQMFQGRVTITADKSTSTAYMELSSLRSEDTAVYYCARDVGYDWPDTFDIWGQGTMVIVSS VL: DIQMTQSPSSLSASVGDRVTITCRASQGISSWLAWYQQKPEKAPKSLIYAASSLQSGVPSRFSGGGSGTDFTLTISSLQPEDFATYYCQQYNSFPPTFGQGTKVEIK	no
anti-c-Met HuMab 035 (IgG1) (antibody, V domains shown, also called P1016-035; TH1016-035-D09) VH: EVQLVQSGAEVKKPGESLKISCKGSGYSFTSYWIGWVRQMPGKGLEWMGIIYPGDSDTRYSPSFQGQVTISADKSISTAYLQWNSLKASDTAMYYCARQEITGEFDYWGQGTLVTVSS VL: AIQLTQSPSSLSASVGDRVTITCRASQGISSALAWYQQKPGKAPKLLIYDASSLESGVPSRFSGSGSGTDFTLTISSLQPEDFATYYCQQFNSYPMYTFGQGTKLEIK	no
anti-c-Met HuMab 045 (IgG1) (antibody, V domains shown, also called TH1016-045; PC1016-045) VH: EVQLLESGGGLVQPGGSLRLSCAASGFTFSSYAMSWVRQAPGKGLEWVSVISGSGGITYYADSVKGRFTISRDNSKNTLYLQMNSLRAEDTAVYYCARDRGWGSDYWGQGTLVTVSS VL: EIVLTQSPATLSLSPGERATLSCRASQSVSSYLAWYQQKPGQAPRLLIYDASNRATGIPARFSGSGSGTDFTLTISSLEPEDFAVYYCQQRSNWPFTFGPGTKVDIK	no

Next, consider the following binder.
input: Hello, I'm reviewing records and need to know if koff of IgG1-1016-058 (antibody, V domains shown, also called IgG1-058; TH1016-058) VH: EVQLVESGGGLVKPGGSLKLSCAASGFTFSDYYMYWVRQTPEKRLEWVATISDDGSYTYYPDSVKGRFTISRDNAKNNLYLQMSSLKSEDTAMYYCAREGLYYYGSGSYYNQDYWGQGTLVTVSS VL: AIQLTQSPSSLSASVGDRVTITCRASQGLSSALAWYRQKPGKAPKLLIYDASSLESGVPSRFSGSGSGTDFTLTISSLQPEDFATYYCQQFTSYPQITFGQGTRLEIK is below 0.002 s⁻¹. Could you check?
output: yes
